Measured kon accompanies every entry in the list below.
Biological target: T1, recombinant human cardiac troponin T (human, UniProt P45379 2-298)
T1 construct: In the ECL assay the cTnT came from the Troponin T hs CalSet calibrator; also called cTnT; TnT
Experiment: SPR (Biacore T200, 37 C), Fab captured, cTnT analyte
Numbers only; they are read as M⁻¹ s⁻¹.

Some entries whose results are on file:
INSERT INTO measurements (binder, value_reported) VALUES
  ('anti-cTnT Fab mutant 22 (F60W, Y104F) (Fab, V domains shown, also called combination 22) VH: EVQLQQSGPELVKPGASVKMSCKASGYTFTDYYMKWVKQSHGKSLEWIGDINPNNGETWYNQKFKDKATLTVDKSSSTAYMQLNSLTSEDSAVYYCATRVFDFWGQGTTLTVSS VL: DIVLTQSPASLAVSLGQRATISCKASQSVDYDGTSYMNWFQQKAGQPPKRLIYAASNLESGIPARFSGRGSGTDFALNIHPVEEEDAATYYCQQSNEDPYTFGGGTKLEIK', '3e+06'),
  ('anti-cTnT Fab mutant 21 (F60W, V101Y) (Fab, V domains shown, also called combination 21) VH: EVQLQQSGPELVKPGASVKMSCKASGYTFTDYYMKWVKQSHGKSLEWIGDINPNNGETWYNQKFKDKATLTVDKSSSTAYMQLNSLTSEDSAVYYCATRYFDYWGQGTTLTVSS VL: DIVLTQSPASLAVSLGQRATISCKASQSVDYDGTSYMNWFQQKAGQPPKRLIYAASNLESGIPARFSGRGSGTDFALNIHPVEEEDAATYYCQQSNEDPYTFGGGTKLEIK', '2.7e+06');

# evaluate next
Data request, read-out kon, for anti-cTnT Fab mutant 7 (Y34F, Y104F) (Fab, V domains shown, also called combination 7) VH: EVQLQQSGPELVKPGASVKMSCKASGYTFTDYFMKWVKQSHGKSLEWIGDINPNNGETFYNQKFKDKATLTVDKSSSTAYMQLNSLTSEDSAVYYCATRVFDFWGQGTTLTVSS VL: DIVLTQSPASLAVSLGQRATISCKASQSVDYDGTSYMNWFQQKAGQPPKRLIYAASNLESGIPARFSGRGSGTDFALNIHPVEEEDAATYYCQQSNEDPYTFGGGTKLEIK
2.4e+06
